# EXPERIMENTAL DETAILS: Effective critical dimension from CPK space-filling atomic models
# Format: physicochemical
PROPERTY: Effective Critical Dimension (Angstroms)

Examples with their reported Effective Critical Dimension follow.
                   molecule                      property  meas_value
0           Cc1cc(C)nc(C)c1  Effective Critical Dimension         7.5
1       Cc1nc(C)c(C)c(C)c1C  Effective Critical Dimension         7.7
2                Cc1ccncc1C  Effective Critical Dimension         7.0
3  Cc1ccc2ccc3ccc(C)nc3c2n1  Effective Critical Dimension         8.3
4        Cc1cc(C)c2ccccc2n1  Effective Critical Dimension         7.5

[P] c1ccc(-c2ccnc3c2ccc2c(-c4ccccc4)ccnc23)cc1
[Q] Cc1cccc(C)n1
Query string: Which record shows the lower Effective Critical Dimension: the first, P , or the second, Q ? Field: selected label. Fill in the label of the entry you choose.
Result string: Q
(Q: 6.6 Angstroms, P: 9.5 Angstroms)

* * *

# EXPERIMENTAL DETAILS: Effective critical dimension from CPK space-filling atomic models
# Type: physicochemical
PROPERTY: Effective Critical Dimension (Angstroms)

>>> df
          chemical_string  unit_annotation  meas_value
0  c1cnc2c(c1)ccc1cccnc12        Angstroms         7.5
1  c1ccc2c(c1)ccc1ncccc12        Angstroms         7.5
2      Cc1ccnc2c(C)cccc12        Angstroms         7.4
3   Cc1cc(C)c2cccc(C)c2n1        Angstroms         7.9

* * *

Listing of recorded Effective Critical Dimension by entry.
# EXPERIMENTAL DETAILS: Effective critical dimension from CPK space-filling atomic models
# Type: physicochemical
# Description: The concept of an "effective critical dimension" of a molecule is described by Breck on pages 633 to 641 in Zeolite Molecular Sieves, John Wiley & Sons, Inc. (1974), the entire contents of which are incorporated herein by reference. […] Effective critical dimensions for the purposes of this invention were determined by the use of CPK (Corey-Pauling-Koltun) space-filling atomic models, obtained from Ealing Corporation, Natick, Mass. […]
Number in Angstroms, nothing else.

                                  molecule  meas_value
0                          Cc1ccnc2ccccc12         7.3
1  c1ccncc1 [Pyridine, reference compound]         6.2

// moving on: another record for Effective Critical Dimension
Query string: Return reported Effective Critical Dimension; argument: c1ccc2c(c1)ccc1cccnc12
Result string: 7.5
